System: Mouse Lung Cancer (3LL)
Assay: In vitro anti-cancer cell activity (cellular toxicity, SRB and MTT methods, 72 hours)
Assay type: cell-based
Settings: read-out: In vitro anti-cancer cell activities IC50, Mouse Lung Cancer (3LL)
measurementKind: pIC50
Scale note: pIC50 = -log10(concentration in M).

NC(=O)c1nnc(Cc2ccncc2)c2cc(-c3ccc(Cl)cc3)sc12 [Compound 13]: 5.91

Entry under test: NC(=O)c1nnc(Cc2cc[nH]c2)c2cc(-c3ccc(Cl)cc3)sc12 [Compound 14] . Its pIC50 was 5.07

----------
Tested on: Human Gastric Cancer (BGC-823)
Assay: In vitro anti-cancer cell activity (cellular toxicity, SRB and MTT methods, 72 hours)
Assay type: cell-based
Conditions: Homo sapiens, read-out: In vitro anti-cancer cell activities IC50, Human Gastric Cancer (BGC-823)
measurementKind: pIC50
Scale note: pIC50 = -log10(concentration in M).

Entry under test: NC(=O)c1nnc(CC2CCOC2)c2cc(-c3ccc(Cl)cc3)sc12 (stereo not shown) . Its pIC50 was 4.61

Attribution: patent US9249154B2
